Source: PubChem BioAssay (NCATS)

Field: activity change, negative = inhibition. Provide a value for each of the compounds that follow.
Test: AP1 Signaling Pathway (AID 357);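 further: ME-180 reporter cells stimulated with EGF at its EC50 level; on the % scale 0 is the no-effect control and ±100 the full control effect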
Conditions: ME-180 AP-1-bla reporter, EGF-induced, beta-lactamase ratio, 5 h; at 17.2 µM (top of the series) unless noted
Results filed as inconclusive are left out.
Note: unit % is implicit; provide only the numeric part.

Return the recorded activity change, negative = inhibition value; entry: "COc1ccccc1N1CCN(CCOc2c(OC)cccc2OC)CC1"
12.4

Answer with the recorded activity change, negative = inhibition for the compound listed here: "O=c1[nH]c(CN2CCCCC2)nc2c1C1(CCCC1)Cc1ccccc1-2"
14.5

Query activity change, negative = inhibition for "CC(C)CSc1nc(N2CCOCC2)c2c(c1C#N)CC(C)(C)SC2"
-7.32

Return the recorded activity change, negative = inhibition value; entry: "CCOC(=O)c1nc2nc(C)c(Cl)c(=O)n2[nH]1"
-6.21

Retrieve activity change, negative = inhibition measured for "COc1ccc2[nH]c(C)c(C(=O)CN3CCOCC3)c2c1" and print it.
12.7

Read the entry "O=c1[nH]c(CN(CCO)CCO)nc2c1C1(CCCCC1)Cc1ccccc1-2" and write its reported activity change, negative = inhibition.
8.29

----------
Assay: Stat Signaling Pathway (AID 446);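 further: ME-180 cervical cancer cells given 40 pM IL-6 alongside compound; SIE-controlled beta-lactamase reporter measured as 460/530 nm FRET emission ratio; on the % scale 0 is the no-effect control and ±100 the full control effect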
Conditions: ME-180 (cervical carcinoma) SIE beta-lactamase reporter, IL-6 stimulated, 5 h; at 17.2 µM (top of the series) unless noted
Experimental: NCGC Assay Overview: The IL-6/STAT signaling pathway was assayed in ME-180 cervical carcinoma cells by a beta-lactamase reporter gene controlled by a STAT Inducible Element (SIE). This reporter is induced by IL-6 at 40 pM AC50 and inhibited by the pan JAK inhibitor, 2-(1,1-Dimethylethyl)-9-fluoro-3,6-dihydro-7H-benz[h]-imidaz[4,5-f]isoquinolin-7-one, at approximately 10 nM AC50. Plated cells were incubated overnight and on the following day, stimulated with 40 pM IL-6 for 5 hrs. […]
Results filed as inconclusive are left out. Calls of active or inactive are those of the source. The call rests on the fitted dose curve; in most records, active means well fitted curve in either direction with a large enough effect (not every such curve was filed as active); inconclusive means small, poorly fitted or top-dose-only effect, or another doubt; inactive means flat fitted curve, though single readings scatter.
Write down one outcome, taken from yes = active, no = inactive

I'd appreciate the recorded outcome for "O=c1[nH]c(=O)n(Cc2ccco2)c2c1C(C(F)(F)F)(C(F)(F)F)N=C(c1ccco1)N2" from this test.
no

What was the test verdict on COc1cccc(N2CCN(c3ncnc4c3[nH]c3ccccc34)CC2C)c1 (stereo unspecified) ?
yes

Hello, I am checking results. What call was entered for "CCCC(=O)Nc1sc2c(c1C#N)CCCC2" ?
no

Per the assay record, what outcome was assigned to "COc1ccc(C2=Nn3c(nnc3-c3ccccn3)SC2)cc1OC" ?
no

Lab log entry: CCN1CCCC1Cn1cnc2c([nH]c3ccc(C)cc32)c1=O (stereo unspecified) — outcome as called in the assay?
no

Status in this test for "N#Cc1nc(COc2ccccc2Cl)oc1NCc1ccc(F)cc1" ?
no

Returns: the outcome recorded for "CCc1cc2c(=O)c(-c3cscn3)coc2c(CN(C)C)c1O" in this assay.
no

Record request — test call for "COc1cc(=O)n2c(-c3ccccc3)csc2n1"
no

What is the recorded call for this molecule in the test? N#C/C(C(=O)NCc1ccco1)=C1/SC(Cc2ccc(Cl)cc2)C(=O)N1c1ccccc1 (stereo unspecified)
no

What did the test return for CC1(C)CC(N(Cc2ccco2)C(=O)Cc2ccccc2)CCO1 (stereo unspecified) ?
no

// outcome(item) with item = COc1cccc(C2/C(=C(/O)c3cnn(-c4ccccc4)c3C)C(=O)C(=O)N2CCN(C)C)c1 (stereo unspecified)
no

For this molecule, state the assay outcome: "CC(=O)/C=C(\C)NCCNc1c(F)c(F)c(CO)c(F)c1F"
no

Each molecule tested received a call. Report the one for "COn1c(=S)[nH]c2ccccc2c1=O" .
no

Would you mind telling me which call this test gave CCOc1cc(C2Nc3ccccc3C(=O)N2c2ccccc2OC)ccc1O (stereo unspecified) ?
no

I'd appreciate the recorded outcome for "Cc1nc(NCCCO)c(C#N)c2c1COC(C)(C)C2" from this test.
no

Assay outcome for CC12CN3CC(C)(CN(C1)C3c1ccc(Cl)cc1Cl)C2O (stereo unspecified) : what was it?
no

I'd appreciate the recorded outcome for "Cc1nn(CC(=O)NCCN2CCOCC2)c(=O)c2ccccc12" from this test.
no

Would you mind telling me which call this test gave "Cc1nnc(C)n1/N=C/c1cc(Br)cc(Br)c1O" ?
no

Test call for this molecule, please: "Cc1cc(C)n(C(=O)CSc2nc3ccccc3o2)n1"
no

Recorded test outcome, item "CCC(=O)Nc1cccc(-c2nnc(SCC(=O)NCc3ccco3)n2C)c1"
no

Record lookup: outcome of this test for C=CCOc1ccc(/C(O)=C2/C(=O)C(=O)N(CCCN3CCOCC3)C2c2ccccc2)cc1 (stereo unspecified) ?
no

Field: outcome | Entry: COCc1[nH]nc2c1C(c1sccc1C)C(C#N)=C(N)O2 (stereo unspecified)
no

Per the assay record, what outcome was assigned to CCOc1ccc(C2CC(c3ccccc3)Nc3nc(N)nn32)cc1 (stereo unspecified) ?
no

Outcome logged for "CCOc1cccc(-c2nn3c(-c4ccccn4)nnc3s2)c1" in this assay:
no

What did this assay record as the result for CC(C)C1Cc2c(sc3c2c(=O)n(-c2ccccc2)c2nncn32)CO1 (stereo unspecified) ?
no

Can you look up the reported call for "CC1CCN(CC[C@@H]2CCCN2S(=O)(=O)c2cccc(O)c2)CC1" for me?
no

Tell me the assay call for CC(NC(=O)OCc1ccccc1)C(=O)OCN1C(=O)c2ccccc2C1=O (stereo unspecified) please.
no

Could you kindly confirm the outcome this assay logged for "Cc1ccc(C)c(OCc2nnc(NC(=O)c3ccco3)s2)c1" ?
no

Test call, this molecule: "O=C1C=C(N2CCN(C3=CC(=O)CCC3)CC2)CCC1"
no

Look up the recorded call for "CCN(CC)c1ccc(C2Nc3cccc4cccc(c34)N2)c(O)c1" in this test.
no

Would you mind telling me which call this test gave "Cn1c(=O)c2c(nc(OCc3cccnc3)n2Cc2ccccc2)n(C)c1=O" ?
no

Could you kindly confirm the outcome this assay logged for CC(C)C1=C2OC(N)=C(C#N)C(C#N)=C2C(C)CC1 (stereo unspecified) ?
no

Please share the test call associated with COc1ccc(C2=CC(c3ccc(C)cc3)n3nnnc3N2)cc1 (stereo unspecified) .
no

How was "C#CCN1C(C)=C(C(=O)OC)[C@@H](c2cccc([N+](=O)[O-])c2)C(C(=O)OCC)=C1C" classified in this test?
no

Which result was noted for this molecule in the test: COc1ccc(C2C(C(C)=O)=C(O)C(=O)N2c2nccs2)cc1OC (stereo unspecified)
no

Please indicate how the test categorized "CN1CCN(c2ncnc3c2[nH]c2ccc(F)cc23)CC1" .
no

Assay outcome for CCOc1ccc(C2/C(=C(/O)c3ccc(F)cc3)C(=O)C(=O)N2CCCN(C)C)cc1 (stereo unspecified) : what was it?
no

Please indicate how the test categorized "COc1ccc(OC)c(C2=Nn3c(nnc3C3CCCCC3)SC2)c1" .
no

Record request — test call for "O=C1c2c(O)cc(O)cc2O[C@@H](c2ccc(O)c(O)c2)[C@H]1O"
no

Which outcome did this test record for the molecule "Nc1nnc(Cc2ccc(Cl)c(Cl)c2)s1" ?
no

Could you please tell me the result logged for COc1ccc(/C(O)=C2/C(=O)C(=O)N(CCCN(C)C)C2c2ccco2)cc1Cl (stereo unspecified) in this assay?
no

// return assay outcome for "COC(=O)/C=c1/s/c(=C(\C#N)C(=O)NCc2ccco2)n(-c2ccccc2)c1=O"
no

For this molecule, state the assay outcome: "NC(=O)C1CCN(CCC(=O)Nc2ccc(Br)cc2)CC1"
no

Recorded test call requested for COC(=O)CC1SC(=O)NC1=O (stereo unspecified)
no

Given "Cc1nc(/N=C(\N)Nc2ccccc2)nc2ccccc12" , state the outcome it received in this test.
no

# lookup: test call for "CCOC(=O)c1ccccc1OCc1cc(/C=N/n2cncn2)ccc1OC"
no
